All values here come from ChEMBL document CHEMBL1142652.

test: Inhibitory concentration against KB/V-1 cells overexpress MDR1; assay type: functional, cell-based; details: Homo sapiens
Value Type: IC50 (nM)
# unit: nM | format: bare number

{"Compound Structure": "COc1cc2c(=O)n(CCN(C(C)C)C(C)C)c3c4cc5c(cc4ncc3c2cc1OC)OCO5", "Value Type": "IC50", "Unit Of Measurement": "nM", "Result Value": 40}
{"Compound Structure": "CCN(CCn1c(=O)c2cc(OC)c(OC)cc2c2cnc3cc4c(cc3c21)OCO4)C(C)C", "Value Type": "IC50", "Unit Of Measurement": "nM", "Result Value": 21}
{"Compound Structure": "COc1cc2c(=O)n(CCN(C)Cc3ccccc3)c3c4cc5c(cc4ncc3c2cc1OC)OCO5", "Value Type": "IC50", "Unit Of Measurement": "nM", "Result Value": 300}
{"Compound Structure": "COc1cc2c(=O)n(CCN)c3c4cc5c(cc4ncc3c2cc1OC)OCO5", "Value Type": "IC50", "Unit Of Measurement": "nM", "Result Value": 15}
{"Compound Structure": "COc1cc2c(=O)n(CCN3CCC(C)CC3)c3c4cc5c(cc4ncc3c2cc1OC)OCO5", "Value Type": "IC50", "Unit Of Measurement": "nM", "Result Value": 50}
{"Compound Structure": "COc1cc2c(=O)n(CCNC(C)(C)C)c3c4cc5c(cc4ncc3c2cc1OC)OCO5", "Value Type": "IC50", "Unit Of Measurement": "nM", "Result Value": 16}

Please look at the following compound next.
Measured IC50 of `COc1cc2c(=O)n(CCNC(C)C)c3c4cc5c(cc4ncc3c2cc1OC)OCO5` : 5

----------
Entries and their pIC50
system: RPMI 8402; experiment: Cytotoxicity against camptothecin-resistant RPMI 8402; assay type: functional, cell-based; conditions: Homo sapiens
API: returns pIC50 as number; meaning -log10 of concentration in mol/L.

Some solved entries appear below for comparison.
{"Compound": "COc1cc2c(=O)n(CCNC(C)(C)C)c3c4cc5c(cc4ncc3c2cc1OC)OCO5", "pIC50": 6.66}
{"Compound": "COc1cc2c(=O)n(CCN(Cc3ccccc3)C(C)C)c3c4cc5c(cc4ncc3c2cc1OC)OCO5", "pIC50": 5.23}
{"Compound": "CNCCn1c(=O)c2cc(OC)c(OC)cc2c2cnc3cc4c(cc3c21)OCO4 [GENZ-644282]", "pIC50": 6.60}
{"Compound": "COc1cc2c(=O)n(CCNCc3ccccc3)c3c4cc5c(cc4ncc3c2cc1OC)OCO5", "pIC50": 6.55}

Measured pIC50 of `COc1cc2c(=O)n(CCN3CCCC3)c3c4cc5c(cc4ncc3c2cc1OC)OCO5` : 6.41

Measured pIC50 of `CCN(CC)CCn1c(=O)c2cc(OC)c(OC)cc2c2cnc3cc4c(cc3c21)OCO4` : 6.07

Measured pIC50 of `COc1cc2c(=O)n(CCN3CCC(C)CC3)c3c4cc5c(cc4ncc3c2cc1OC)OCO5` : 6.35

Measured pIC50 of `COc1cc2c(=O)n(CCN(C)C(C)C)c3c4cc5c(cc4ncc3c2cc1OC)OCO5` : 6.20

Measured pIC50 of `COc1cc2c(=O)n(CCN3CCNCC3)c3c4cc5c(cc4ncc3c2cc1OC)OCO5` : 5.57

Measured pIC50 of `COc1cc2c(=O)n(CCN(C)Cc3ccccc3)c3c4cc5c(cc4ncc3c2cc1OC)OCO5` : 5.70
